For each of the binders below, state its IC50, Jagged1 co-culture Notch3 reporter gene assay.
Molecular target: Human Notch3-Gal4-VP16 (human)
Assay: cell-based or functional assay

Request the reported IC50, Jagged1 co-culture Notch3 reporter gene assay associated with 12229 (antibody, human IgG1, lambda, V domains shown) VH: QVQLVESGGGLVKPGGSLRLSCAASGFTFSSYTMNWVRQAPGKGLEWVGRIKTKTNGGTTDYAAPVKGRFTISRDDSKNTLYLQMNSLKTEDTAVYYCARERSRAGSIFDPWGQGTLVTVSS VL: DIVLTQPPSVSGAPGQRVTISCSGSSSNIGFNYVSWYQQLPGTAPKLLIYYNNQRPSGVPDRFSGSKSGTSASLAITGLQAEDEADYYCSTWTGTSESHVFGGGTKLTVLG
0.7 nM

Entry 12225 (antibody, human IgG1, kappa, V domains shown, also called MOR 12225) VH: QVQLVQSGAEVKKPGSSVKVSCKASGGTFSSYTISWVRQAPGQGLEWMGWIKPAFGTANYAQKFQGRVTITADESTSTAYMELSSLRSEDTAVYYCARGSFWFGYWGQGTLVTVSS VL: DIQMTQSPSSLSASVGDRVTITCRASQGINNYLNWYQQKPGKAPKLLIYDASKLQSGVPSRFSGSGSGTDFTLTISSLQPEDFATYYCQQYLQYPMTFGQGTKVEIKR : reported IC50, Jagged1 co-culture Notch3 reporter gene assay = ?
5.8 nM

Form field: reported IC50, Jagged1 co-culture Notch3 reporter gene assay of 20337 (antibody, human IgG1, kappa, V domains shown) VH: QVQLVESGGGLVKPGGSLRLSCAASGFTFSTYVMHWVRQAPGKGLEWVGRIRANAYGGAADYAAPVKGRFTISRDDSKNTLYLQMNSLKTEDTAVYYCARAEARYRDVWGQGTLVTVSS VL: DIQMTQSPSSLSASVGDRVTITCRASQSISSHLNWYQQKPGKAPKLLIYAASNLQSGVPSRFSGSGSGTDFTLTISSLQPEDFATYYCQQDYHTPFTFGQGTKVEIKR
4.6 nM

Record request: IC50, Jagged1 co-culture Notch3 reporter gene assay value, item 12981 (antibody, human IgG1, kappa, V domains shown, also called MOR 12981) VH: QVQLVQSGAEVKKPGSSVKVSCKASGGTFRTYAMHWVRQAPGQGLEWMGGIIPIFGIANYAQKFQGRVTITADESTSTAYMELSSLRSEDTAVYYCARDDYSTYAFAYWGQGTLVTVSS VL: DIQMTQSPSSLSASVGDRVTITCRASQSIASYLAWYQQKPGKAPKLLIYDASNLQSGVPSRFSGSGSGTDFTLTISSLQPEDFATYYCQQAYKTPYTFGQGTKVEIKR
0.2 nM
